Listed compounds paired with reported inhibition
MEASURED TARGET: Hexose transporter 1 (Plasmodium falciparum) (UniProt O97467)
ASSAY SUMMARY: ST_JUDE_LEISH: Cytotoxicity at 2uM final concentration against transgenic Leishmania Mexicana promastigotes LmPfHT that are glucose transport deficient and complemented with the Plasmodium falciparum hexose transporter. Activity is measured by DNA content using SYBR green in vitro
Assay type: functional
// return numeric value only (unit: %, not printed)

[
  {
    "COMPOUND": "CCCN1CCc2c(sc3nc(SCC(=O)Nc4ccc(C)cc4)n(-c4ccc(C)cc4)c(=O)c23)C1",
    "inhibition (%)": 3.25
  }
]

Prompt line: Report inhibition for COc1ccc(C=C2SC(=N)N(c3ccccc3OC)C2=O)cc1
Response line: 5.54

Prompt line: Please list inhibition recorded for the compound CC(C)c1ccc(CN2CCC(NC(=O)c3ccc(-c4cccc(F)c4)s3)CC2)cc1
Response line: -0.01

Prompt line: Note down inhibition recorded for Cc1cc(N(C)C)nc(Nc2ccc(NC(=O)c3ccc(F)cc3)cc2)n1
Response line: 8.06

Prompt line: Recall and state the measured inhibition for Cc1ccc2cc(NCCCCCCCCON3C(N)=NC(N)=NC34CCCCC4)ccc2n1 .
Response line: 8.23

Prompt line: Tell us which inhibition value is on record for CCOC(=O)c1c(-c2ccccc2)nc2c(sc3ccccc32)c1O
Response line: 5.15

Prompt line: Give me measured inhibition, please, for this compound: CC(=O)Nc1cccc(Nc2c3ccccc3nc3ccccc23)c1
Response line: 3.82

Prompt line: Quote inhibition reported for COC(=O)c1cccc(CNCc2ccc(-c3ccc(-c4nc5cc(F)ccc5[nH]4)s3)cc2)c1 please.
Response line: 0.36

Prompt line: Supply reported inhibition belonging to this compound: O=C(Nc1ccc(OC(F)(F)F)cc1)NC1CCN(c2ccnc3ccccc23)C1 (stereo not given)
Response line: 2.41

Prompt line: Kindly indicate its recorded inhibition. Item: O=C(Nc1ccccc1)N1CCOC(CCN2CCC(F)(F)CC2)(c2ccc(Cl)c(Cl)c2)C1 (stereo not given)
Response line: 4.85

Prompt line: Fill in inhibition for record Clc1ccc(-c2cc3c(NCc4ccncc4)nccc3s2)cc1
Response line: 4.38

Prompt line: Return inhibition for the following compound: N#Cc1c(N)nc(SCC(=O)Nc2cc(C(F)(F)F)ccc2Cl)c(C#N)c1-c1cccs1
Response line: 0.77

Prompt line: Return the recorded inhibition value; entry: COc1cc2c(cc1CCNCCCCNCCc1cc3c(cc1OC)CCCC3)CCCC2
Response line: 98.4

Prompt line: Please give the documented inhibition of CC[C@H]1CN2CCc3cc(OC)c(OC)cc3[C@@H]2C[C@@H]1CC1=NCCc2c1[nH]c1ccc(OCc3ccccc3)cc21
Response line: 0.59
